Test system: HER2-positive breast cancer cells
Test: Cell growth assay (live cell count)
Assay type: cell-based
Details: Homo sapiens, 72 h; 3 days of culture; read-out: IC50 for effect on HER2-positive breast cancer cells
Excerpt: For live cell counts, cell growth on 96-well plates were fixed 4% formaldehyde and counterstained with Hoechst 33342 for nuclei.
resultType: IC50 (nM)

C=CC(=O)N1CCC[C@@H](n2nc(-c3ccc(Oc4ccccc4)cc3)c3c(N)ncnc32)C1 = 30
